Where these numbers come from: patent US9376418B2

# assay-target: recombinant human GST-SYK (Homo sapiens, UniProt P43405)
# Construct: purchased Carna Biosciences 08-176
# assay-summary: Homogeneous Time-Resolved Fluorescence (HTRF) assay for the recombinant human Syk enzyme
# Assay type: biochemical
# study-conditions: HTRF assay, recombinant human GST-SYK; IC50 given as class symbols; read-out: rhSYK Activity
recorded-endpoint: IC50

# compound, result
data = [
    ("Cc1cc(Nc2nccc(C(F)(F)F)n2)cc(-c2ccc(N3CCCC[C@@H]3C(=O)O)nc2)c1 [Example 7.85]", "< 100 nM"),
    ("Cc1cc(Nc2nccc(C)n2)cc(-c2cc(CCC(=O)O)ccn2)c1 [Example 2.23]", "< 100 nM"),
    ("Cc1cc(Nc2nccc(C(F)(F)F)n2)cc(-c2ccc(S(N)(=O)=O)nc2)c1 [Example 21.4]", "< 100 nM"),
    ("Cc1cc(Nc2nccc(C(F)(F)F)n2)cc(-c2cncc(C(C)(O)C(F)(F)F)c2)c1 (stereo not drawn) [Example 9.81]", "< 100 nM"),
    ("CC(=O)N1CCCN(c2cc(-c3cc(C)cc(Nc4nccc(C(F)(F)F)n4)c3)ccn2)CC1 [Example 15.75]", "100 to 1000 nM"),
    ("Cc1cc(Nc2nccc(C3CC3)n2)cc(-c2ccc(CCC(=O)O)cn2)c1 [Example 2.40]", "< 100 nM"),
    ("Cc1cc(Nc2nccc(C(F)(F)F)n2)cc(-c2cnc3c(c2)CCN3)c1 [Example 2.47]", "< 100 nM"),
    ("Cc1cc(Nc2nccc(C(F)(F)F)n2)cc(-c2ccc(C(=O)N(C)CCO)nc2)c1 [Example 16.6]", "< 100 nM"),
    ("COc1ccnc(Nc2cc(C)cc(-c3ccc(C(C)(O)[C@H]4CC[C@H](C(=O)O)CC4)nc3)c2)n1 (stereo partly drawn) [Example 9.25]", "< 100 nM"),
    ("Cc1cc(Nc2nccc(C(F)(F)F)n2)cc(-c2ccc(N3CCNC(=O)C3)nc2)c1 [Example 7.67]", "< 100 nM"),
    ("Cc1cc(Nc2nccc(C3CC3)n2)cc(-c2cncc(CCC(=O)O)c2)c1 [Example 2.102]", "< 100 nM"),
    ("Cc1cc(Nc2nccc(C(F)(F)F)n2)cc(-c2ccnc(N(C)CCC3OCCO3)c2)c1 [Example 15.57]", "100 to 1000 nM"),
    ("CCNC(=O)Nc1cc(Nc2nccc(C(F)(F)F)n2)cc(-c2cccnc2)c1 [Example 6.3]", "< 100 nM"),
    ("Cc1ccnc(Nc2cccc(-c3ccc(N[C@H]4CC[C@H](C(=O)O)CC4)nc3)c2)n1 [Example 2.107]", "< 100 nM"),
    ("CCCN1CCCN(c2cc(-c3cc(C)cc(Nc4nccc(C(F)(F)F)n4)c3)ccn2)CC1 [Example 15.76]", "< 100 nM"),
    ("Cc1cc(Nc2nccc(C(F)(F)F)n2)cc(-c2ccc(N3CCC[C@H]3C(=O)NCC(=O)O)nc2)c1 [Example 7.83]", "< 100 nM"),
    ("Cc1cc(Nc2nccc(C(F)(F)F)n2)cc(-c2ccc(C(=O)N(C)CC3COCCO3)nc2)c1 (stereo not drawn) [Example 16.38]", "100 to 1000 nM"),
    ("Cc1cc(Nc2nccc(C(F)(F)F)n2)cc(-c2ccc(C(O)C(C)(C)C(=O)O)nc2)c1 (stereo not drawn) [Example 23.1]", "< 100 nM"),
    ("Cc1cc(Nc2nccc(C(F)(F)F)n2)cc(-c2ccc(C3(O)CCNC(=O)CC3)nc2)c1 (stereo not drawn) [Example 11.1]", "< 100 nM"),
    ("CCOC(=O)CCc1ccnc(-c2cc(C)cc(Nc3nccc(C)n3)c2)c1 [Example 2.33]", "100 to 1000 nM"),
    ("Cc1cc(Nc2nccc(C(F)(F)F)n2)cc(-c2ccc([C@]3(O)CC[C@@H](C(=O)O)CC3)nc2)c1 [Example 9.34]", "< 100 nM"),
]

====

IC50 values by entry
# assay-target: recombinant human GST-SYK (Homo sapiens, UniProt P43405)
# Construct: purchased Carna Biosciences 08-176
# assay-summary: Homogeneous Time-Resolved Fluorescence (HTRF) assay for the recombinant human Syk enzyme
# Format: biochemical
# study-conditions: HTRF assay, recombinant human GST-SYK; IC50 given as class symbols; read-out: rhSYK Activity

# compound, IC50
data = [
    ("Cc1cc(Nc2nccc(C(C)C)n2)cc(-c2ccc(N[C@H]3CC[C@H](C(=O)O)CC3)nc2)c1", "< 100 nM"),
    ("Cc1cc(Nc2nccc(C(F)(F)F)n2)cc(-c2ccnc(CCC(=O)O)c2)c1", "< 100 nM"),
    ("Cc1cc(Nc2nccc(C(F)(F)F)n2)cc(-c2ccc(N3CCN(C)C(=O)C3)nc2)c1", "100 to 1000 nM"),
    ("Cc1cc(Nc2nccc(C(F)(F)F)n2)cc(-c2ccc(N(C)CCO)nc2)c1", "< 100 nM"),
    ("Cc1cc(Nc2nccc(C(F)(F)F)n2)cc(-c2ccc(CNC(N)=O)nc2)c1", "< 100 nM"),
    ("Cc1cc(Nc2nccc(C(F)(F)F)n2)cc(-c2ccnc(NC(C)(C)C(=O)O)c2)c1", "< 100 nM"),
    ("CC[C@H](Nc1ccc(-c2cc(C)cc(Nc3nccc(C(F)(F)F)n3)c2)cn1)C(=O)O", "< 100 nM"),
    ("CNC(=O)C1CCN(c2cc(-c3cc(C)cc(Nc4nccc(C(F)(F)F)n4)c3)ccn2)CC1", "100 to 1000 nM"),
    ("Cc1cc(Nc2ncc(Cl)c(C)n2)cc(-c2ccc(N[C@H]3CC[C@H](C(=O)O)CC3)nc2)c1", "< 100 nM"),
    ("Cc1cc(Nc2nccc(C(F)(F)F)n2)cc(-c2ccc(OC3CCC(C(=O)O)CC3)nc2)c1 (stereo not drawn) [Example 2.111]", "< 100 nM"),
    ("Cc1cc(Nc2nccc(C(F)(F)F)n2)cc(-c2ccc(N[C@H](C(=O)O)[C@@H](C)O)nc2)c1", "< 100 nM"),
    ("Cc1cc(Nc2nccc(C(F)(F)F)n2)cc(-c2cncc(NCC3CC3)c2)c1", "< 100 nM"),
    ("Cc1cc(Nc2nccc(C)n2)cc(-c2ccc(C(C)(O)[C@H]3CC[C@H](C(=O)O)CC3)nc2)c1 (single isomer, unassigned) [Example 9.26]", "< 100 nM"),
    ("Cc1cc(Nc2nccc(C(F)(F)F)n2)cc(-c2ccc(C3(O)COC3)nc2)c1", "< 100 nM"),
    ("Cc1cc(Nc2nccc(C(F)(F)F)n2)cc(-c2ccc(Oc3ccc(C(=O)O)cc3)nc2)c1", "< 100 nM"),
    ("Cc1cc(Nc2nccc(C(F)(F)F)n2)cc(-c2ccc(N(CCC#N)CC(=O)O)nc2)c1", "< 100 nM"),
    ("Cc1cc(Nc2nccc(C(F)(F)F)n2)cc(-c2ccnc(N(C)CCO)c2)c1", "< 100 nM"),
    ("Cc1cc(Nc2ncc(F)c(C3CC3)n2)cc(-c2ccc(N3CC[C@H]3C(=O)O)nc2)c1", "< 100 nM"),
    ("O=C(O)c1cccc(-c2cccc(Nc3nccc(C(F)(F)F)n3)c2)n1", "100 to 1000 nM"),
    ("Cc1cc(Nc2nccc(C(F)(F)F)n2)cc(-c2ccnc(NC(C)(CO)CO)c2)c1", "< 100 nM"),
    ("CCOC(=O)CCc1cccc(-c2cc(C)cc(Nc3nccc(C)n3)c2)n1", "1000 to 10000 nM"),
    ("Cc1cc(Nc2nccc(C(F)(F)F)n2)cc(-c2ccc(C3(O)CCCC(C(=O)O)C3)nc2)c1 (stereo not drawn)", "< 100 nM"),
    ("O=C(O)c1cncc(-c2cccc(Nc3nccc(C(F)(F)F)n3)c2)c1", "< 100 nM"),
    ("CC(C)(Nc1ccc(-c2cccc(Nc3nccc(C(F)(F)F)n3)c2)cn1)C(=O)O", "< 100 nM"),
]

====

# assay-target: recombinant human GST-SYK (Homo sapiens, UniProt P43405)
# Construct: purchased Carna Biosciences 08-176
# assay-summary: Homogeneous Time-Resolved Fluorescence (HTRF) assay for the recombinant human Syk enzyme
# Assay type: biochemical
# study-conditions: HTRF assay, recombinant human GST-SYK; IC50 given as class symbols; read-out: rhSYK Activity
recorded-endpoint: IC50

# compound, result
data = [
    ("Cc1cc(Nc2nccc(C(F)(F)F)n2)cc(-c2ccc(C(O)(CO)CO)nc2)c1 [Example 9.33]", "< 100 nM"),
    ("CCN1CCN(c2ccc(-c3cc(C)cc(Nc4nccc(C(F)(F)F)n4)c3)cn2)CC1 [Example 7.49]", "100 to 1000 nM"),
    ("CNC(=O)CN(C)C(=O)c1ccc(-c2cc(C)cc(Nc3nccc(C(F)(F)F)n3)c2)cn1 [Example 16.61]", "< 100 nM"),
    ("Cc1cc(Nc2nccc(C(F)(F)F)n2)cc(-c2ccc(C3(O)CCC(C(=O)O)C3(C)C)nc2)c1 (stereo not shown) [Example 9.22]", "< 100 nM"),
]
